Task for the reader: assign each of the following molecules its reported TGI.
Tested on: SW-620 colon
Test: NCI tumour cell line growth inhibition, 48 h

Worked set:
- molecule: "COc1cc(OC)cc(-c2cc(=O)c3c(OC)c(OC)c(OC)c(OC)c3o2)c1"
  result: "> 100 µM"
- molecule: "C=C(Br)C(C)(Br)CCC(Br)C(C)(C)Cl (stereo not given)"
  result: "30.4 µM"

Quick request: TGI for each listed item, please.
1. CN1CSC(=S)N(c2c3ccccc3nc3ccc(Br)cc23)C1
2. CCN(CCCN(CC)C(=O)Nc1c(C)cccc1C)C(=O)Nc1c(C)cccc1C
3. CCOC(=O)c1cc2nc3ccccc3c(=O)n2c2ccccc12
4. COC(=O)C1=C(C)NC(C)=C(C(=O)OCCCN2CCC(c3ccccc3)(c3ccccc3)CC2)C1c1cccc([N+](=O)[O-])c1 (stereo not given)
5. O=C1c2ccccc2-c2c1c(-c1ccc(F)cc1)nc1ccc3ccccc3c21
6. NC1=NCC(CN2CCOCC2)O1 (stereo not given)
7. COc1cc2c(c(OC)c1OC)-c1ccc(OC)c(=O)cc1C(NC(=O)c1ccc(N=[N+]=[N-])cc1)CC2 (stereo not given)
8. COc1ccc(NC(=O)CC(=O)N2N=C(N3c4ccccc4Sc4ccccc43)CC2c2ccccc2)cc1 (stereo not given)

Result:
23.8 µM
> 100 µM
> 10 µM
3.75 µM
> 100 µM
> 100 µM
> 100 µM
> 100 µM

Each recorded value in this set is attributed to PubChem BioAssay (NCI).
